settings: buffer; pH 7.4; 6.0 h; 150.0 µM

- Compound: "O=C(Nc1ncc(Cc2ccc(C(F)(F)F)cc2)s1)c1ccc(-c2ccccc2[N+](=O)[O-])o1"
  Cmp: "<"
  solubility kinetic / µg/mL: 1
- Compound: "CC(NCc1ccc2c(c1)nc(NC(=O)c1ccc(-c3cn[nH]c3)s1)n2CC(C)(C)O)C(C)(C)C (stereo not given)"
  Cmp: ">"
  solubility kinetic / µg/mL: 73
- Compound: "CN1CC=C(c2nc(Nc3ccc(F)c(F)c3)c3ccccc3n2)CC1"
  Cmp: "="
  solubility kinetic / µg/mL: 33.8
- Compound: "C=CCc1cccc(CNc2ccc(S(=O)(=O)Nc3nccs3)cc2)c1O"
  Cmp: "="
  solubility kinetic / µg/mL: 23.1
- Compound: "COc1cc(Nc2nc(-c3ccncc3)nc3ccccc23)ccc1Cl"
  Cmp: "<"
  solubility kinetic / µg/mL: 1
- Compound: "Cc1ccc(N2CCN(c3cnn(-c4nc5ccccc5s4)c(=O)c3Cl)CC2C)cc1 (stereo not given)"
  Cmp: "<"
  solubility kinetic / µg/mL: 1
- Compound: "COc1ccc(-c2ccc3ncc(Nc4ccncc4)n3n2)cc1OC"
  Cmp: "="
  solubility kinetic / µg/mL: 31.9
- Compound: "CN1CCN(C(=O)c2ccc3cc(CCNc4ncnc5ccc(C#N)cc45)ccc3c2)CC1"
  Cmp: "="
  solubility kinetic / µg/mL: 49.7
- Compound: "O=[S+]([O-])(Nc1nccs1)c1ccc(NCc2ccc(Cl)c(Cl)c2)cc1"
  Cmp: "<"
  solubility kinetic / µg/mL: 1
- Compound: "CS(=O)(=O)c1ccc(-c2nnc(/C=C/c3nnc(-c4ccc(C#N)cc4)o3)n2-c2ccccc2Cl)nc1"
  Cmp: "="
  solubility kinetic / µg/mL: 4.17
- Compound: "Cc1ccc(S(=O)(=O)Nc2cnccc2C(=O)Nc2nc(C3CCC3)cs2)cc1"
  Cmp: ">"
  solubility kinetic / µg/mL: 63
- Compound: "Cc1ccc2c(c1)/C(=C\\c1cc(Cl)c(O)c(Cl)c1)C(=O)N2"
  Cmp: "="
  solubility kinetic / µg/mL: 15.4
- Compound: "Cc1cccc(N(C)c2nc3ccccc3c3nnc(C)n23)c1"
  Cmp: ">"
  solubility kinetic / µg/mL: 45
- Compound: "CCc1c(C)nc2c(-c3cnn(-c4cc(CO)ccn4)c3)c[nH]n2c1=O"
  Cmp: "="
  solubility kinetic / µg/mL: 10.1
- Compound: "Cc1cccc(N2CCN(c3nc4ccccc4c4nnc(C)n34)CC2)c1C"
  Cmp: "<"
  solubility kinetic / µg/mL: 1

* * *

Recorded solubility kinetic, one value per entry.
details: buffer; pH 7.4; 6.0 h; 150.0 µM

- Compound: "CCNC(=O)Nc1ncc(-c2cc(-c3c(C)cc(OC)cc3C)nc(-c3cnccn3)n2)s1"
  solubility kinetic: "< 1 µg/mL"
- Compound: "COc1ccc(NC(=O)c2[nH]c(C)c(C(C)=O)c2C)cc1S(=O)(=O)N1CCCCCC1"
  solubility kinetic: "3.11 µg/mL"
- Compound: "Cn1c2ccccc2c2c3c(c4c5ccccc5n(CCC#N)c4c21)CNC3=O"
  solubility kinetic: "< 1 µg/mL"
- Compound: "CCN(CC)CCCCNc1ncc2cc(-c3c(Cl)cccc3Cl)c(NC(=O)NC(C)(C)C)nc2n1"
  solubility kinetic: "34.7 µg/mL"
- Compound: "C=CCON=C(C[C@H]1O[C@@H]2O[C@]3(C)CC[C@@H]4[C@H](C)CC[C@@H]([C@H]1C)[C@@]24OO3)[C@H]1O[C@@H]2O[C@]3(C)CC[C@H]4[C@H](C)CC[C@@H]([C@@H]1C)[C@@]24OO3"
  solubility kinetic: "26.6 µg/mL"
- Compound: "NS(=O)(=O)c1ccc(NC(=O)c2cc3ncccn3n2)cc1"
  solubility kinetic: "5.17 µg/mL"
- Compound: "Cc1cccc(CS(=O)(=O)c2ncc(Cl)c(C(=O)Nc3nc4ccc(F)cc4s3)n2)c1"
  solubility kinetic: "< 1 µg/mL"
- Compound: "Cc1ccc(-c2ccc(CNc3nc(-c4ccccc4C(C)C)nc4ccccc34)cc2)cn1"
  solubility kinetic: "< 1 µg/mL"
- Compound: "O=C1CCCC2=C1C(C1CCCCC1Cl)N=C(NC1NC3CCCCC3S1)N2 (centres undefined)"
  solubility kinetic: "< 1 µg/mL"
- Compound: "CCN1CCN(c2ccc(Nc3ccc(-c4ccc(C(N)=O)cc4)n4ncnc34)cc2)CC1"
  solubility kinetic: "> 65 µg/mL"
- Compound: "CCOc1ccc(-c2csc(N3CCC(C(N)=O)CC3)n2)cc1"
  solubility kinetic: "11 µg/mL"
- Compound: "CCOC(=O)N1CCc2c(sc(NCc3ccc(N(C)C)cc3)c2C(=O)Nc2ccc(OC)cc2)C1"
  solubility kinetic: "2 µg/mL"
- Compound: "O=[N+]([O-])c1cccc(CSc2nc3ncc(Br)cc3[nH]2)c1"
  solubility kinetic: "< 1 µg/mL"
- Compound: "COc1ccc(NC(=O)c2ccc[nH]2)cc1S(=O)(=O)Nc1ccc(Br)cc1"
  solubility kinetic: "< 1 µg/mL"
- Compound: "COc1ccc(-n2c(C)c(C(C)=O)c3cc(OC(=O)COc4ccccc4)ccc32)cc1"
  solubility kinetic: "< 1 µg/mL"
- Compound: "COc1ccc(Cl)cc1NC(=O)c1sc2nc3c(cc2c1N)N1CCC3CC1"
  solubility kinetic: "< 1 µg/mL"
- Compound: "Cc1ccc(-c2cc(C(=O)NC3CCCCC3)c3ccccc3n2)cc1"
  solubility kinetic: "< 1 µg/mL"
- Compound: "O=C(Nc1ccc(S(=O)(=O)Nc2ncc(-c3ccccc3)s2)cc1)c1ccc2ccccc2c1"
  solubility kinetic: "< 1 µg/mL"
- Compound: "O=C1C(c2ccc(C(F)(F)F)cc2)=C(Nc2ccc(Cl)cc2)c2ccccc21"
  solubility kinetic: "< 1 µg/mL"
- Compound: "O=S(=O)(c1ccc2ccccc2c1)N1CCN(c2nc(-c3cccs3)nc3ccccc23)CC1"
  solubility kinetic: "< 1 µg/mL"
- Compound: "O=c1[nH]c(C2CCN(CC3CCCCC3)CC2)nn1Cc1ccccc1"
  solubility kinetic: "> 52 µg/mL"
- Compound: "CCS(=O)(=O)c1nc(-c2ccc(Cl)cc2)cc(C(F)(F)F)n1"
  solubility kinetic: "8.53 µg/mL"
- Compound: "CN([C@@H](Cc1ccc(O[S+](=O)([O-])c2cccc3cnccc23)cc1)C(=O)N1CCN(C(=O)OCc2ccccc2)CC1)[S+](=O)([O-])c1cccc2cnccc12"
  solubility kinetic: "1.26 µg/mL"
- Compound: "Fc1cc(Nc2nc(-c3ccncc3)nc3ccccc23)ccc1-c1ccnc(C(F)(F)F)c1"
  solubility kinetic: "< 1 µg/mL"
- Compound: "Cn1nnnc1Sc1ncnc2scc(-c3ccccc3F)c12"
  solubility kinetic: "1.2 µg/mL"
- Compound: "CC(C)(C)OC(=O)N1CCN(c2ccc(NCc3ccc(-c4ccc(C#N)cc4)o3)cc2)CC1"
  solubility kinetic: "9.31 µg/mL"
- Compound: "Cc1ccc(-n2c(C)cc(-c3nnc4n3CCCCC4)c2C)cc1"
  solubility kinetic: "27.8 µg/mL"
- Compound: "Oc1cccc2nc3ccccc3nc12"
  solubility kinetic: "> 29 µg/mL"
- Compound: "COc1ccc(O)c2c(=O)c3c(OC)cc4c(c3oc12)C1C=COC1O4 (centres undefined)"
  solubility kinetic: "< 1 µg/mL"

Source of measurements: PubChem BioAssay AID1645848
